# STUDY_TARGET: UniProt:P43235
# Sequence (P43235 whole entry): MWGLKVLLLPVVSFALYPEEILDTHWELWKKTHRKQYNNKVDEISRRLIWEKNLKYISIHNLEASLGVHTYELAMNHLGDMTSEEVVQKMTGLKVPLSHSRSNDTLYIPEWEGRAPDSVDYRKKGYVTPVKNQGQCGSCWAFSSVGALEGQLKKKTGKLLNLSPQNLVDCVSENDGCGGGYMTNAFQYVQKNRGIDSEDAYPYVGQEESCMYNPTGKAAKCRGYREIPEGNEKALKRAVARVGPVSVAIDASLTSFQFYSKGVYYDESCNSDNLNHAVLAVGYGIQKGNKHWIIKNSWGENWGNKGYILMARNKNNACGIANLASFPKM
# METHOD_DESCRIPTION: Inhibition of human recombinant cathepsin K
REPORTED_PROPERTY: log10 of IC50 (log10 of the value in nM)

>>> data_value("CCCC[C@H](NC(=O)O[C@H](Cn1ccc(-c2ccncc2)n1)C(C)(C)C)C(=O)CNS(=O)(=O)c1ccccn1")
0.58
>>> data_value("C[C@H](NC(=O)O[C@H](Cn1cnc2cc(Cl)c(Cl)cc21)C(C)(C)C)C(=O)CNS(=O)(=O)c1ccccn1")
0.15
>>> data_value("CC(C)(C)[C@@H](Cn1ccc(-c2ccc(C(F)(F)F)cc2)n1)OC(=O)NCC(=O)CNS(=O)(=O)c1ccccn1")
1.81
>>> data_value("C[C@H](NC(=O)O[C@H](Cn1ccc(C(F)(F)F)n1)C(C)(C)C)C(=O)CNS(=O)(=O)c1ccccn1")
2.48
>>> data_value("CCCC[C@H](NC(=O)O[C@H](Cn1ccc(C(F)(F)F)n1)C(C)(C)C)C(=O)CNS(=O)(=O)c1ccccn1")
1.51
>>> data_value("CCCC[C@H](NC(=O)O[C@H](Cn1cc(-c2ccc(C(F)(F)F)cc2)cn1)C(C)(C)C)C(=O)CNS(=O)(=O)c1ccccn1")
0.88
>>> data_value("CCCC[C@H](NC(=O)O[C@H](Cn1ccc(-c2ccc(C(F)(F)F)cc2)n1)C(C)(C)C)C(=O)C(=O)Nc1ccn[nH]1")
-1.14
